Reference source for all entries: patent US12091426B2

Dmax for assorted compounds
assayed-target: HPK1 (Homo sapiens, UniProt Q92918)
Construct: A HiBiT tag was introduced by CRISPR on the N terminus of HPK1 in Jurkat cells; host or cells: Jurkat cells (ATCC TIB-152), monoclonal line with CRISPR knock-in of HiBiT at the endogenous HPK1 locus
Sequence (Q92918 whole entry): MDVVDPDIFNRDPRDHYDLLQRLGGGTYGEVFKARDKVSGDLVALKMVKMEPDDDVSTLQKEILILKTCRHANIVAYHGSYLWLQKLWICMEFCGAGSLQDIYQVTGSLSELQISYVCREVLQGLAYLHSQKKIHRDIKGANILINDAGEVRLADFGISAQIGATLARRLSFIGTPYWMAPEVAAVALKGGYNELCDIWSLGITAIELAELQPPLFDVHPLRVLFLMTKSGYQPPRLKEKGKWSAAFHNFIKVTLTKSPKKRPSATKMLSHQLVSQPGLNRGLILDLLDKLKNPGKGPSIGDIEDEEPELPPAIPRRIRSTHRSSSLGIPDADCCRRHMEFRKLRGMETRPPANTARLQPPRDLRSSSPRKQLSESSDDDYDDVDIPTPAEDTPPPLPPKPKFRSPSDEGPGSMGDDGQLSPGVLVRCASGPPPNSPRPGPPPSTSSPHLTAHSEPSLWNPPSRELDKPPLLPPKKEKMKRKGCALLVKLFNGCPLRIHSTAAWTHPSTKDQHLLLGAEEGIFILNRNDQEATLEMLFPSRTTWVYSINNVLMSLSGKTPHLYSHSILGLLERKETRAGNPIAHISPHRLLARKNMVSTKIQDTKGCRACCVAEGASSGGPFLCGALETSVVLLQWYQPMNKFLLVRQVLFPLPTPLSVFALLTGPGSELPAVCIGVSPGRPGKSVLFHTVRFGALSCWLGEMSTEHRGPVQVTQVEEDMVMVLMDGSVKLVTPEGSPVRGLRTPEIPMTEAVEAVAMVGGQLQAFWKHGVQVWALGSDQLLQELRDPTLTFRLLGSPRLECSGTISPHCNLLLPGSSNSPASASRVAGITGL
method-description: HPK1 Cellular HiBit Degradation Assay
Assay type: cell-based
condition-label: Jurkat, HiBiT HPK1 Jurkat cells, 24 hrs; maximum degradation vs DMSO vehicle control; read-out: Dmax Category
Description: HPK1 Cellular HiBit Degradation Assay A HiBiT tag was introduced by CRISPR on the N terminus of HPK1 in Jurkat cells (ATCC® TIB-152) to allow quantitation of HPK1 protein levels in a monoclonal human cell line. […] Cells were incubated for 10 min at room temperature and luminescence was read on an EnVision plate reader (Perkin Elmer, 0.1 sec per well). […] Percent HPK1 remaining per sample was calculated as follows: […]

These solved cases illustrate the format of a correct answer.
{"columns": ["compound", "Dmax"],
 "data": [
  ["CC(C)n1cnc2cc(-c3ccc4c(c3)N([C@H]3C[C@@H](N5CCCCC5)C3)C(=O)C43CCN(C(=O)C4CCN(C(=O)[C@H]5CC[C@H](N(C)c6ccc(C7CCC(=O)NC7=O)cn6)CC5)CC4)CC3)nc(Nc3ccccc3F)c21 (mixture of isomers)", "70 to 85%"],
  ["CC(C)n1cnc2cc(-c3ccc4c(c3)N([C@H]3C[C@@H](N5CCCCC5)C3)C(=O)C43CCN(CC(=O)N(C)C4CCN(C(=O)C5CCN(c6cc(C7CCC(=O)NC7=O)ccn6)CC5)CC4)CC3)nc(NC3CC3)c21 (stereo partly shown)", "50 to 70%"],
  ["CC(C)n1cnc2cc(-c3ccc4c(c3)N([C@H]3C[C@@H](N5CCCCC5)C3)C(=O)C43CCN(C(=O)C4CCN(C(=O)C5CCN(c6ccc(C7CCC(=O)NC7=O)nn6)CC5)CC4)CC3)nc(NC3CC3)c21 (mixture of isomers)", "70 to 85%"]
]}

Next up:
Task: Identify the measured Dmax of CC(C)n1cnc2cc(-c3ccc4c(c3)N([C@H]3C[C@@H](N5CCCCC5)C3)C(=O)C43CCN(C(=O)C4CCN(C(=O)C5CCN(c6ccc(C7CCC(=O)NC7=O)cc6)CC5)CC4)CC3)nc(NC3CC3)c21 (stereo partly shown) for HPK1 (Homo sapiens, UniProt Q92918).
Output: 70 to 85%

* * *

assayed-target: HPK1 (Homo sapiens)
Construct: A HiBiT tag was introduced by CRISPR on the N terminus of HPK1 in Jurkat cells; host or cells: Jurkat cells (ATCC TIB-152), monoclonal line with CRISPR knock-in of HiBiT at the endogenous HPK1 locus
method-description: HPK1 Cellular HiBit Degradation Assay
Format: cell-based
condition-label: Jurkat, HiBiT HPK1 Jurkat cells, 24 hrs; maximum degradation vs DMSO vehicle control; read-out: Dmax Category
Dmax for assorted compounds

{"columns": ["compound", "Dmax"],
 "data": [
  ["CC(C)Oc1nc(-c2ccc3c(c2)N([C@H]2C[C@@H](N4CCCCC4)C2)C(=O)C32CCN(C(=O)C3(C)CCN(C(=O)C4CCN(c5ccc(C6CCC(=O)NC6=O)cn5)CC4)CC3)CC2)cc2ncn(C(C)C)c12 (stereo partly shown)", "> 85%"],
  ["CC(C)n1cnc2cc(-c3ccc4c(c3)N([C@H]3C[C@@H](N5CCCCC5)C3)C(=O)C43CCN(C(=O)c4ccc(C(=O)N(C)C5CCN(c6ccc(C7CCC(=O)NC7=O)cn6)CC5)cc4)CC3)nc(Nc3ccccc3F)c21 (mixture of isomers)", "50 to 70%"],
  ["CC(C)n1cnc2cc(-c3ccc4c(c3)N([C@H]3C[C@@H](N(C)C)C3)C(=O)C43CCN(C(=O)C4CCN(C(=O)C5CCN(c6ccc(C7CCC(=O)NC7=O)cn6)CC5)CC4)CC3)nc(Nc3ccccc3F)c21 (mixture of isomers)", "70 to 85%"]
]}

Task: // returns reported Dmax for input CC(C)n1cnc2cc(-c3ccc4c(c3)N([C@H]3C[C@@H](N5CCCCC5)C3)C(=O)C43CCN(C(=O)N4CCC(C(=O)N5CCN(c6ccc(C7CCC(=O)NC7=O)cn6)CC5)CC4)CC3)nc(NC3CC3)c21 (stereo partly shown)
Output: 50 to 70%

* * *

assayed-target: HPK1 (Homo sapiens)
Construct: A HiBiT tag was introduced by CRISPR on the N terminus of HPK1 in Jurkat cells; host or cells: Jurkat cells (ATCC TIB-152), monoclonal line with CRISPR knock-in of HiBiT at the endogenous HPK1 locus
method-description: HPK1 Cellular HiBit Degradation Assay
Format: cell-based
condition-label: Jurkat, HiBiT HPK1 Jurkat cells, 24 hrs; maximum degradation vs DMSO vehicle control; read-out: Dmax Category
Dmax for assorted compounds

{"columns": ["compound", "test-readout", "result"],
 "data": [
  ["CC(C)n1cnc2cc(-c3ccc4c(c3)N([C@H]3C[C@@H](N5CCCCC5)C3)C(=O)C43CCN(C(=O)C4CN(C(=O)C5CCN(c6ccc(C7CCC(=O)NC7=O)cc6)CC5)CC(F)(F)C4)CC3)nc(NC3CC3)c21 (mixture of isomers) [Example 268]", "Dmax", "50 to 70%"]
]}

Next up:
Task: // returns reported Dmax for input CC(C)n1cnc2cc(-c3ccc4c(c3)N([C@H]3C[C@@H](N5CCCCC5)C3)C(=O)C43CCN(C(=O)[C@@H]4CCN(C(=O)[C@H]5CC[C@H](Nc6cccc(C7CCC(=O)NC7=O)n6)CC5)C4)CC3)nc(Nc3ccccc3F)c21 (mixture of isomers) [Example 8]
Output: 70 to 85%

* * *

assayed-target: HPK1 (Homo sapiens, UniProt Q92918)
Construct: A HiBiT tag was introduced by CRISPR on the N terminus of HPK1 in Jurkat cells; host or cells: Jurkat cells (ATCC TIB-152), monoclonal line with CRISPR knock-in of HiBiT at the endogenous HPK1 locus
method-description: HPK1 Cellular HiBit Degradation Assay
Format: cell-based
condition-label: Jurkat, HiBiT HPK1 Jurkat cells, 24 hrs; maximum degradation vs DMSO vehicle control; read-out: Dmax Category
test-readout: Dmax

Task: Identify the measured Dmax of CC(C)n1cnc2cc(-c3ccc4c(c3)N([C@H]3C[C@@H](N5CCCCC5)C3)C(=O)C43CCN(C(=O)[C@@H]4CCN(C(=O)[C@H]5CC[C@H](Oc6ccc(C7CCC(=O)NC7=O)cn6)CC5)C4)CC3)nc(NC3CC3)c21 (mixture of isomers) [Example 16] for HPK1 (Homo sapiens, UniProt Q92918).
Output: 70 to 85%

Task: Identify the measured Dmax of CC(C)n1cnc2cc(-c3ccc4c(c3)N([C@H]3C[C@@H](N5CCCCC5)C3)C(=O)C43CCN(C(=O)C4CCN(C(=O)C5CCN(c6ccc(N7CCC(=O)NC7=O)cn6)CC5)CC4)CC3)nc(NC3CC3)c21 [Example 79] for HPK1 (Homo sapiens, UniProt Q92918).
Output: 50 to 70%

* * *

assayed-target: HPK1 (Homo sapiens, UniProt Q92918)
Construct: A HiBiT tag was introduced by CRISPR on the N terminus of HPK1 in Jurkat cells; host or cells: Jurkat cells (ATCC TIB-152), monoclonal line with CRISPR knock-in of HiBiT at the endogenous HPK1 locus
method-description: HPK1 Cellular HiBit Degradation Assay
Type: cell-based
condition-label: HiBiT HPK1 Jurkat cells, 24 hrs; concentration at which 50% of HPK1 was remaining; read-out: DC50 Category
DC50 for assorted molecules

{"columns": ["molecule", "DC50"],
 "data": [
  ["CC(C)n1cnc2cc(-c3ccc4c(c3)N([C@H]3C[C@@H](N5CCCCC5)C3)C(=O)C43CCN(C(=O)C4CCN(C(=O)C5CCN(c6ccc(C7CCC(=O)NC7=O)cc6)CC5)CC4)CC3)nc(NC3CC3)c21 (some centres unmarked)", "< 0.1 µM"]
]}

Next up:
Task: // returns reported DC50 for input "CC(C)n1cnc2cc(-c3ccc4c(c3)N([C@H]3C[C@@H](N5CCCCC5)C3)C(=O)C43CCN(C(=O)C4(C)CCN(C(=O)[C@H]5CC[C@H](Oc6ccc(N7CCC(=O)NC7=O)cn6)CC5)CC4)CC3)nc(Nc3ccncc3F)c21"
Output: 0.1 to 0.5 µM

* * *

assayed-target: HPK1 (Homo sapiens, UniProt Q92918)
Construct: A HiBiT tag was introduced by CRISPR on the N terminus of HPK1 in Jurkat cells; host or cells: Jurkat cells (ATCC TIB-152), monoclonal line with CRISPR knock-in of HiBiT at the endogenous HPK1 locus
method-description: HPK1 Cellular HiBit Degradation Assay
Format: cell-based
condition-label: Jurkat, HiBiT HPK1 Jurkat cells, 24 hrs; maximum degradation vs DMSO vehicle control; read-out: Dmax Category
Dmax for assorted compounds

These solved cases illustrate the format of a correct answer.
{"columns": ["compound", "Dmax"],
 "data": [
  ["CC(C)n1cnc2cc(-c3ccc4c(c3)N([C@H]3C[C@@H](N5CCCCC5)C3)C(=O)C43CCN(C(=O)[C@]4(C)CCN(C(=O)C5CCN(c6ccc(C7CCC(=O)NC7=O)cc6F)CC5)C4)CC3)nc(NC3CC3)c21 (mixture of isomers)", "> 85%"],
  ["CC(C)n1cnc2cc(-c3ccc4c(c3)N([C@H]3C[C@@H](N5CC6CCC(C5)O6)C3)C(=O)C43CCN(C(=O)C4(C)CCN(C(=O)C5CCN(c6ccc(C7CCC(=O)NC7=O)cc6)CC5)CC4)CC3)nc(NC3CC3)c21 (mixture of isomers)", "50 to 70%"],
  ["CC(C)n1cnc2cc(-c3ccc4c(c3)N([C@H]3C[C@@H](N5CCCCC5)C3)C(=O)C43CCN(C(=O)C4CCN(C(=O)[C@H]5CC[C@H](Oc6ccc(C7CCC(=O)NC7=O)cc6)CC5)CC4)CC3)nc(Nc3ccncc3F)c21 (mixture of isomers)", "50 to 70%"],
  ["CC(C)n1cnc2cc(-c3ccc4c(c3)N([C@H]3C[C@@H](N5CCCCC5)C3)C(=O)C43CCN(C(=O)[C@H]4CCN(C(=O)C5CCN(c6ccc(C7CCC(=O)NC7=O)cn6)CC5)C4)CC3)nc(Nc3ccccc3F)c21 (mixture of isomers)", "70 to 85%"],
  ["CC(C)n1cnc2cc(-c3ccc4c(c3)N([C@H]3C[C@@H](N5CCCCC5)C3)C(=O)C43CCN(C(=O)C4CC5CCC(C4)N5C(=O)C4CCN(c5ccc(C6CCC(=O)NC6=O)cc5)CC4)CC3)nc(NC3CC3)c21 (mixture of isomers)", "70 to 85%"],
  ["CC(C)n1cnc2cc(-c3ccc4c(c3)N([C@H]3C[C@@H](N5CCCCC5)C3)C(=O)C43CCN(C(=O)C4CCN(C(=O)[C@H]5CC[C@H](Nc6cccc7c6C(=O)N(C6CCC(=O)NC6=O)C7=O)CC5)CC4)CC3)nc(NC3CC3)c21 (mixture of isomers)", "50 to 70%"],
  ["CC(C)n1cnc2cc(-c3ccc4c(c3)N([C@H]3C[C@@H](N5CCCCC5)C3)C(=O)C43CCN(C(=O)[C@H]4CC[C@H](C(=O)N5CCC(N(C)c6ccc(C7CCC(=O)NC7=O)cc6)CC5)CC4)CC3)nc(NC3CC3)c21 (mixture of isomers)", "50 to 70%"]
]}

Next up:
Task: // returns reported Dmax for input Cc1cc(C(=O)N2CCC3(CC2)C(=O)N([C@H]2C[C@@H](N4CCCCC4)C2)c2cc(-c4cc5ncn(C(C)C)c5c(Nc5ccccc5F)n4)ccc23)ccc1C(=O)N1CCN(c2ccc3c(c2)C(=O)N(C2CCC(=O)NC2=O)C3=O)CC1 (mixture of isomers)
Output: 50 to 70%
